The values you see were collected from the kinase profiling compilation of Christmann-Franck et al. (2016).

- SYSTEM_TESTED: NEK6 (human) (UniProt Q9HC98)
- Sequence (Q9HC98 whole entry, looked up): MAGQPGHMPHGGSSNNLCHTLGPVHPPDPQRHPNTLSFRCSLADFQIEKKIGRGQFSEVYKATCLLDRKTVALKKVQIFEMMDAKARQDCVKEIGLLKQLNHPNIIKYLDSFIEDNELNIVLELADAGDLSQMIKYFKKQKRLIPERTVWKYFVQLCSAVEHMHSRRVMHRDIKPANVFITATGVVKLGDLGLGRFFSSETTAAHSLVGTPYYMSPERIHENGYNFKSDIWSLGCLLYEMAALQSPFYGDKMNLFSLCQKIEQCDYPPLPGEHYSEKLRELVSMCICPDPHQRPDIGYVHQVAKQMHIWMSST
- TEST_NAME: radiometric filter-binding kinase assay
- CONDITION_CONTEXT: compound 10.0 µM
Labelling: residual activity reported below 80% becomes yes (1); at or above becomes no (0).

Problem: Lab note: residual activity threshold 80%. Does this compound come in strictly under it? "FC(F)(F)c1ccc(-c2ccc(Oc3cncc4sc(-c5nn[nH]n5)cc34)cc2)cc1"
Result: no (0)

Problem: Repeat with "O=C(Nc1ccccc1-c1cn2c(CN3CCNCC3)csc2n1)c1cnc2ccccc2n1"
Result: no (0)

Problem: Repeat with Nc1cccc2c1CN(C1CCC(=O)NC1=O)C2=O (stereo not given)
Result: no (0)

Problem: Repeat with "CCCCCc1ccc(/C=C/[C@H](O)[C@@H](CO)NC)cc1"
Result: no (0)

Problem: Repeat with "NC(=O)c1cc2c(-c3cccc(-c4ccccc4)c3)cnc(N)c2s1"
Result: no (0)

Problem: Repeat with "N#Cc1c(O)c2c(-c3ccc(-c4ccccc4O)cc3)csc2[nH]c1=O"
Result: no (0)

---

Measured residual activity, listed per entry.
- SYSTEM_TESTED: BTK (human)
- TEST_NAME: radiometric filter-binding kinase assay
- CONDITION_CONTEXT: compound 10.0 µM
Write it as a number; the unit % goes unstated.

Use the examples below as a reference point.
- COMPOUND: "CCc1cncnc1N1CCN(Cc2nc3cc(C(F)(F)F)ccc3[nH]2)CC1"
  READOUT_NUMBER: 92
- COMPOUND: "O=C(NOC[C@H](O)CO)c1ccc(F)c(F)c1Nc1ccc(I)cc1Cl"
  READOUT_NUMBER: 100
- COMPOUND: "O=C(N[C@@H](COc1ccc2[nH]c(=O)[nH]c2c1)c1ccccc1)c1cccn(Cc2ccc(F)c(F)c2)c1=O"
  READOUT_NUMBER: 110

Problem: Name the recorded residual activity for "NC(=O)c1cc2c(-c3cccc(-c4ccccc4)c3)cnc(N)c2s1" .
Result: 30

Problem: Repeat with "CNc1nc(-c2ccc3c(N)n[nH]c3c2)cc(N2C[C@@H](C(=O)NC3CCCCC3)CC[C@H]2C)n1"
Result: 90

Problem: Repeat with "c1ccc2c(-c3cnn4cc(-c5ccc(N6CCNCC6)cc5)cnc34)ccnc2c1"
Result: 52

Problem: Repeat with "NCC(=O)Nc1ccc(-n2nc(C(F)(F)F)cc2-c2ccc3c(ccc4ccccc43)c2)cc1"
Result: 96

Problem: Repeat with "Cc1cc(SCc2sc(-c3ccc(C(F)(F)F)cc3)nc2C)ccc1OCC(=O)O"
Result: 95

---

Measured residual activity, listed per entry.
- SYSTEM_TESTED: UniProt Q9BUB5
- Sequence (Q9BUB5 whole entry, looked up): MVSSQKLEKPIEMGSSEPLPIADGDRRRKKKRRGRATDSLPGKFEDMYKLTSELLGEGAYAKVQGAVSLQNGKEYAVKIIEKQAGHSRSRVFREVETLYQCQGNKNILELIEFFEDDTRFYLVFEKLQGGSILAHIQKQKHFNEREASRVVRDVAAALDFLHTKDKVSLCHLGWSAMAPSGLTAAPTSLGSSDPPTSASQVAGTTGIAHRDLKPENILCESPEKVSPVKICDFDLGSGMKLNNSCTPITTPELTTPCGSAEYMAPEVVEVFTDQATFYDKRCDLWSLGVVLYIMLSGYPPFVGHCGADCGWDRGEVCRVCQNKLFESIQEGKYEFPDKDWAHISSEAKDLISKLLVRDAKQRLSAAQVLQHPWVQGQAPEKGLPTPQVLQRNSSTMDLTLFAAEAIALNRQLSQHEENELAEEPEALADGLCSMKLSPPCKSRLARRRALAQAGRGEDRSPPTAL
- TEST_NAME: radiometric filter-binding kinase assay
- CONDITION_CONTEXT: compound 10.0 µM
Write it as a number; the unit % goes unstated.

Use the examples below as a reference point.
- MOLECULE: "C=CC(=O)N1CCC[C@@H](n2nc(-c3ccc(Oc4ccccc4)cc3)c3c(N)ncnc32)C1"
  residual activity (%): 84
- MOLECULE: "COc1cc(C(=O)N2CCOCC2)c(F)cc1Nc1ncc(C(F)(F)F)c(NC2CC2)n1"
  residual activity (%): 26
- MOLECULE: "CC1=C(CO)C(=O)O[C@@H]([C@@H](C)[C@H]2CC[C@H]3[C@@H]4C[C@H]5O[C@]56[C@@H](O)C=CC(=O)[C@]6(C)C4CC[C@]23C)C1 (some centres undefined)"
  residual activity (%): 108
- MOLECULE: "O=C(O)c1ccc(-c2c[nH]c3ncc(-c4ccccc4)cc23)cc1C1CCCC1"
  residual activity (%): 3

Problem: Name the recorded residual activity for "NC1(c2ccc(-c3nc4ccn5c(=O)[nH]nc5c4cc3-c3ccccc3)cc2)CCC1" .
Result: 58
